- subject-of-test: hEP1 (Homo sapiens, UniProt P34995)
- Sequence (P34995 whole entry): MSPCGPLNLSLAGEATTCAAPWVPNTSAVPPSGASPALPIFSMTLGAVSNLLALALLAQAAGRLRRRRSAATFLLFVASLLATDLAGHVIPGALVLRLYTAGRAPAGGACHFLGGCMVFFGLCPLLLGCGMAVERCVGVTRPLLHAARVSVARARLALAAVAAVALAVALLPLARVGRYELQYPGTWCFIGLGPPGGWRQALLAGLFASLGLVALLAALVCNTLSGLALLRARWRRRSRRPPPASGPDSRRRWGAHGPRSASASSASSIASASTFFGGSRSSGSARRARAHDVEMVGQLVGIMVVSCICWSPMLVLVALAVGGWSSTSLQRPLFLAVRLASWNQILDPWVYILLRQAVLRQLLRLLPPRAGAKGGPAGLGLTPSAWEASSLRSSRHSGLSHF
- method-summary: FLIPR calcium signal study, hEP1
- measurement-parameters: HEK-293(EBNA) cells, recombinant human receptor, read-out: FUNCTIONAL DATA (EC50 nm) HEP1
readout-name: EC50

Challenge: // lookup EC50 for Cc1sc(CC[C@H](O)/C=C/[C@H]2CCC(O)[C@@H]2C/C=C\CCCC(=O)O)cc1Br (single isomer, unassigned) [drawing 39]
Response given: > 100 µM

* * *

- subject-of-test: hFP (Homo sapiens)
- Sequence (P43088 whole entry): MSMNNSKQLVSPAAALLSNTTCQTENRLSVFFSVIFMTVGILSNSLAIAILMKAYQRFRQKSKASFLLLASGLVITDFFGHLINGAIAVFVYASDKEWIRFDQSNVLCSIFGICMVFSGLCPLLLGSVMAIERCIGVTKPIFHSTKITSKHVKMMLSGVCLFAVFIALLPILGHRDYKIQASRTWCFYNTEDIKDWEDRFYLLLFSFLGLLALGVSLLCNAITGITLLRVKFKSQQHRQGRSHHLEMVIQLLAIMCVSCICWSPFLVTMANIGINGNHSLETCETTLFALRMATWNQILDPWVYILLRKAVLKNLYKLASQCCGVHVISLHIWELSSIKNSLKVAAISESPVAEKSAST
- method-summary: FLIPR calcium signal study, hFP
- measurement-parameters: HEK-293(EBNA) cells, recombinant human receptor, read-out: FUNCTIONAL DATA (EC50 nm) HFP
- Protocol: HEK-293(EBNA) cells, stably expressing one type or subtype of recombinant human prostaglandin receptors (prostaglandin receptors expressed: hDP/Gqs5; hEP1; hEP2/Gqs5; hEP3A/Gqi5; hEP4/Gqs5; hFP; hIP; hTP), were cultured in 100 mm culture dishes in high-glucose DMEM medium containing 10% fetal bovine serum, 2 mM 1-glutamine, 250 μg/ml geneticin (G418) and 200 μg/ml hygromycin B as selection markers, and 100 units/ml penicillin G, 100 μg/ml streptomycin and 0.25 μg/ml amphotericin B. […]
readout-name: EC50

Challenge: I have this compound here, Cc1sc(CC[C@H](O)/C=C/[C@H]2CCC(O)[C@@H]2C/C=C\CCCC(=O)O)cc1Br (single isomer, unassigned) [drawing 40] , and I need its recorded EC50.
Response given: > 100000 nM

Challenge: What value of EC50 has been recorded for this entry: COC(=O)CCC/C=C\C[C@H]1C(O)CC[C@@H]1/C=C/[C@@H](O)CCc1cc(Br)c(C)s1 (single isomer, unassigned)
Response given: 2070 nM

* * *

- subject-of-test: hTP (Homo sapiens)
- Sequence (P21731 whole entry): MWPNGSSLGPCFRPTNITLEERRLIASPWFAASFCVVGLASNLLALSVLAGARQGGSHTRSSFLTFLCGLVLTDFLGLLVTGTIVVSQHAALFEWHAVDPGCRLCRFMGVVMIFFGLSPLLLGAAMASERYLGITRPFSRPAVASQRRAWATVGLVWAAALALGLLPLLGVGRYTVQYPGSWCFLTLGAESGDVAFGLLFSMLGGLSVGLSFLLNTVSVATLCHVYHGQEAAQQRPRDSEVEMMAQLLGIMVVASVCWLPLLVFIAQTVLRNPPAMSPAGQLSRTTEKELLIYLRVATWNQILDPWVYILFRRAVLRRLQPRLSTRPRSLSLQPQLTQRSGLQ
- method-summary: FLIPR calcium signal study, hTP
- measurement-parameters: HEK-293(EBNA) cells, recombinant human receptor, read-out: FUNCTIONAL DATA (EC50 nm) HTP
readout-name: EC50

Challenge: Any idea what its EC50 is? The molecule is COC(=O)CCC/C=C\C[C@H]1C(O)CC[C@@H]1/C=C/[C@@H](O)CCc1cc(Br)c(C)s1 (single isomer, unassigned)
Response given: 1.87 µM

Challenge: For Cc1sc(CC[C@H](O)/C=C/[C@H]2CCC(O)[C@@H]2C/C=C\CCCC(=O)O)cc1Br (single isomer, unassigned) [drawing 39] , what is its reported EC50?
Response given: 0.096 µM

Challenge: So what does the record say about EC50 for Cc1sc(CC[C@H](O)/C=C/[C@H]2CCC(O)[C@@H]2C/C=C\CCCC(=O)O)cc1Br (single isomer, unassigned) [drawing 40] ?
Response given: > 100 µM
